Below, each entry is listed alongside its reported solubility kinetic.
Condition description: buffer; pH 7.4; 200.0 µM

As a guide, the following entries are already answered.
Please give the measured solubility kinetic for this compound: "O=C(CC12CC3CC(CC(C3)C1)C2)NCc1ccccc1" 0.6 µg/mL

Same for "O=C(CSc1nnc(C2CC2)n1Cc1ccccc1)N1CCNC1=O" > 53.6 µg/mL

Continuing:
Please give the measured solubility kinetic for this compound: "Cn1c2ccccc2c2ncn(Cc3ccc(F)cc3)c(=O)c21" < 0.2 µg/mL

Same for O=C1/C(=C/c2cccs2)SC(=S)N1C1CCS(=O)(=O)C1 (stereo unspecified) < 0.7 µg/mL

Same for "O=C1COc2ccc(S(=O)(=O)NCc3ccccc3)cc2N1" 11.6 µg/mL

Same for CC(NC(=O)c1cccs1)C1CCCO1 (stereo unspecified) > 33.8 µg/mL

----------
Condition description: buffer; pH 7.4; 200.0 µM
Assay endpoint: solubility kinetic (µg/mL)
Return type: number; implicit unit µg/mL.

As a guide, the following entries are already answered.
Please give the measured solubility kinetic for this molecule: "CN(c1ccccc1)c1ncccn1" 14.2

Same for "CCOC(=O)CN1C(=O)S/C(=C/c2ccco2)C1=O" 21.2

Same for "COc1ccc(OC)c(NC(=O)COC(=O)CCc2ccc(S(=O)(=O)N3CCOCC3)cc2)c1" 29

Same for "CCc1ccc(C(=O)Nc2ccc3c(c2)n(C)c(=O)n3C)cc1" 5.6

Same for "CSc1ncccc1C(=O)NC1CCCCCC1" 35.5

In the following, a different molecule is considered.
Please give the measured solubility kinetic for this molecule: COc1cccc(C2N(Cc3ccccc3)C(=O)C2(F)F)c1OC (centres undefined) 15.2

----------
Condition description: buffer; pH 7.4; 200.0 µM
Assay endpoint: log10 of solubility kinetic (log10 of the value in µg/mL)
Lab note - solubility kinetic converted to log10 from values in µg/mL.

Please give the measured log10 of solubility kinetic for this molecule: "NC(=O)c1ccsc1NC(=O)CCc1ccccc1" 1.57

Continuing:
Please give the measured log10 of solubility kinetic for this molecule: "Cc1cccc(C)c1-n1c(=O)n(Cc2ccccc2)c(=O)c2[nH]cnc21" 1.31

Same for "COc1cc(/C=C/C(=O)OCC(=O)NCCc2ccc(F)cc2)ccc1OC(F)F" 0.60

Same for "O=C1Nc2ccccc2/C1=C/c1ccccc1F" 0.38

Same for "COc1cc(SC)ccc1C(=O)Nc1ccc2c(c1)CCC2" 0.34

Same for "O=C(CCCC(=O)NC1CCCCC1)Nc1ccc([N+](=O)[O-])cc1" 1.08

----------
Condition description: buffer; pH 7.4; 200.0 µM
Assay endpoint: log10 of solubility kinetic (log10 of the value in µg/mL)
Lab note - solubility kinetic converted to log10 from values in µg/mL.

As a guide, the following entries are already answered.
Please give the measured log10 of solubility kinetic for this compound: "O=C(/C=C/c1ccc([N+](=O)[O-])cc1)c1cccs1" 0.20

Same for "CCCSCCCNC(=O)Cn1c(=O)c2cccn2c2ccccc21" 0.89

Same for COc1c(C)cc(C(=O)C2CCCN(C(=O)/C=C/c3ccccn3)C2)cc1C (stereo unspecified) 1.61

Same for "COc1ccc(NS(=O)(=O)c2cc(NC(=O)COc3ccc(OC)cc3)ccc2N2CCOCC2)cc1" 0.53

Same for "c1cc2c3c(cccc3c1)C(N1CCOCC1)=N2" 1.54

In the following, a different compound is considered.
Please give the measured log10 of solubility kinetic for this compound: O=C1CCC([N+](=O)[O-])C(c2cc(Br)ccc2F)N1 (stereo unspecified) 1.67

----------
Condition description: buffer; pH 7.4; 200.0 µM
Assay endpoint: solubility kinetic (µg/mL)
Return type: number; implicit unit µg/mL.

Please give the measured solubility kinetic for this compound: "N#CCCN(C(=O)COC(=O)c1ccc(S(=O)(=O)N2CCOCC2)cc1)c1ccccc1" 8.2

Same for "CC(C)c1ccccc1NC(=O)CN1C(=O)c2ccccc2C1=O" 1.6

Same for "COc1cccc2cc(C(=O)Nc3ccccc3C)/c(=N/O)oc12" 4.6

Same for "CCc1ccccc1NC(=O)c1ccc(-c2csc(C)n2)cc1" 1

Same for Cc1ccc(C)c(C(C)NC(=O)C2CCCO2)c1 (stereo not given) 36.7

Same for "CCOc1ccc2oc(C(=O)Nc3ccc4c(c3)OCO4)c(C)c2c1" 5.7

Same for "CCCCOc1ccc(CON(C(C)=O)C(C)=O)cc1Cl" 2.6

Same for C(=C\c1ccccc1)/CNCC1CCCO1.Cl (stereo not given) 38

Same for "CC(=O)c1ccc(NC(=O)c2cnsn2)cc1" 29.1

Same for "Cc1cc(C)cc(OCCCn2ccnc2)c1" 26.4

Continuing:
Please give the measured solubility kinetic for this compound: "O=S(=O)(Cc1ccco1)Cc1nc(-c2ccc(Cl)cc2)cs1" 0.9

Same for "O=C(NCc1ccccc1F)Nc1ccc([N+](=O)[O-])cc1" 1.3

Same for "CCOC(=O)c1cc(C(C)(C)C)nc(SC)c1C#N" 1.3

Same for Cc1cccc(C)c1OCCN1C(=O)NC(C)(c2ccccc2)C1=O (stereo not given) 5

Same for CC(NC(=S)NC(=O)c1ccccc1Br)c1ccccc1 (stereo not given) 4.9

----------
Condition description: buffer; pH 7.4; 200.0 µM
Assay endpoint: log10 of solubility kinetic (log10 of the value in µg/mL)
Lab note - solubility kinetic converted to log10 from values in µg/mL.

As a guide, the following entries are already answered.
Please give the measured log10 of solubility kinetic for this compound: "CC(C)(C)c1nc(N)nc(=O)[nH]1" 1.38

Same for "COc1cccc(Cn2c(=O)oc3ccccc32)c1" 1.40

Same for "Cc1ccc(-c2csc3nc[nH]c(=O)c23)cc1C" 0.82

Same for "COC(=O)CSc1nc(NC(C)(C)C)nc(N(C)C)n1" 1.59

Same for "CN(C)/C=C/C(=O)C(F)(F)F" 1.25

Same for "COc1ccc(NC(=O)COc2ccccc2)cc1Cl" 1.53

Same for "COC(=O)CSc1nc2ccc(C)cc2cc1C#N" 0.28

Same for "Cc1nc2ccccc2nc1OCc1cccc([N+](=O)[O-])c1" 0.30

Same for "Cc1ccc(-c2cc(-c3ccco3)c(C#N)c(=O)[nH]2)cc1" 0.41

Same for "O=CN1CCN(C(=S)NC(=O)c2ccc(Cl)cc2)CC1" 1.65

Continuing:
Please give the measured log10 of solubility kinetic for this compound: "Cc1ccccc1NC(=O)NC(C)(C)CC(C)(C)C" 0.11

Same for "CN(C)C(=S)NC(=O)C12CC3(C)CC(C)(CC(C)(C3)C1)C2" 0.00

Same for COc1ccccc1C(=O)N(C1=NC(C)CS1)c1ccc(Cl)cc1 (stereo not given) 0.91

Same for "Cc1cc(C(=O)OCC(=O)Nc2ccc(F)cc2)c(C)n1C1CC1" 0.79

----------
Below, each entry is listed alongside its reported solubility kinetic.
Condition description: buffer; pH 7.4; 200.0 µM
Return type: number; implicit unit µg/mL.

Please give the measured solubility kinetic for this compound: "N#Cc1ccccc1COC(=O)c1ccc(Br)o1" 28.4

Same for "O=C(Nc1ccnc(-c2cccnc2)n1)c1cccs1" 2.9

Same for "O=C(NCCC(=O)N1CCc2ccccc21)c1ccccc1Cl" 32.1

Same for "Cn1c(N)c(C(=O)COC(=O)COc2ccc(Cl)cc2Cl)c(=O)n(C)c1=O" 4.7

Same for "N#C/C(=C\N1CCCCC1)S(=O)(=O)c1ccc(Cl)cc1" 8.2

Same for "O=C(NC(=S)Nc1ccc2c(c1)OCCO2)c1ccco1" 40.3

Continuing:
Please give the measured solubility kinetic for this compound: CC(=NCCc1ccccc1)C1=C(O)C(c2ccccc2)OC1=O (stereo unspecified) 31.7

Same for "CS/C(=C\C(=O)c1ccco1)Nc1ccccc1Cl" 10.4

Same for "Nc1cc(=O)[nH]c(SCC(=O)Nc2cc(Cl)ccc2Cl)n1" 3.5

Same for "COc1ccc2c(C(=O)CCl)c[nH]c2c1" 5.3

Same for Nc1cc(C(F)(F)F)ccc1OCC1CCCO1 (stereo unspecified) 32.8

----------
Below, each entry is listed alongside its reported solubility kinetic.
Condition description: buffer; pH 7.4; 200.0 µM
Return type: number; implicit unit µg/mL.

Please give the measured solubility kinetic for this molecule: "Cc1ccc(C)c(NC(=O)CN(C)C(=O)c2ccncc2)c1" 39.1

Same for "Cc1cc(NS(=O)(=O)c2ccc(C(C)C)cc2)no1" 40.2

Same for "COC(=O)CN1C(=O)N/C(=C/c2ccc(OC)c(C)c2OC)C1=O" 4

Same for "O=C(Nc1ccccc1)/C(=C1\CCCN1)[N+](=O)[O-]" 29.6

Continuing:
Please give the measured solubility kinetic for this molecule: CC(OC(=O)C1CC1C)C(=O)Nc1ccc(Cl)cn1 (stereo not given) 40.9

----------
Condition description: buffer; pH 7.4; 200.0 µM
Assay endpoint: log10(solubility kinetic) (log10 of the value in µg/mL)
Lab note - solubility kinetic converted to log10 from values in µg/mL.

As a guide, the following entries are already answered.
Please give the measured log10(solubility kinetic) for this compound: "O=[N+]([O-])c1ccccc1S(=O)(=O)N1CCN(c2ccccn2)CC1" 0.61

Same for "Cc1cc(Cl)c(OCCOCCN2CCNCC2)c(Cl)c1.O=C(O)C(=O)O" 1.80

Same for "COc1ccc(/C(N)=N/OC(=O)CCC2CCCC2)cc1" 0.62

Same for COCC(C)NC(=O)c1cc2c(ccc3ccccc32)oc1=O (centres undefined) 1.26

Same for "COC(=O)Nc1ccc(S(=O)(=O)NC2CCCCC2)cc1" 0.51

Same for COC(=O)c1c(-c2cccc(C)c2)csc1NC(=O)C1CCCO1 (centres undefined) 1.05

Same for Cc1cccc(NC(=O)C2CC3CCC2C3)c1C (centres undefined) 1.02

Same for CC1CN(C(=O)COC(=O)c2ccc(O)cc2)CC(C)O1 (centres undefined) 1.64

Same for "Cc1cccc(C)c1NC(=O)c1ccc(OCc2c(C)noc2C)cc1" 0.94

Same for O=C1c2ccccc2NC(c2cccc(O)c2)N1c1ccccc1 (centres undefined) 0.46

Continuing:
Please give the measured log10(solubility kinetic) for this compound: "CC(C)C(=O)O/N=C(\N)c1ccc(Oc2ccc(Cl)cc2)c([N+](=O)[O-])c1" 0.54

Same for "O=C(Nc1ccccc1C(=O)Nc1ccncc1)c1ccccc1" 0.78

Same for "Cc1cc(C(=O)Nc2ccc(F)c(Cl)c2)on1" 1.26
